Target: glucokinase (GK) (Homo sapiens, UniProt P35557)
Construct: I.D. No. 1 corresponds to residues 12-465 of glucokinase
Sequence (P35557 with tags, fused parts or gaps isoform P35557-2): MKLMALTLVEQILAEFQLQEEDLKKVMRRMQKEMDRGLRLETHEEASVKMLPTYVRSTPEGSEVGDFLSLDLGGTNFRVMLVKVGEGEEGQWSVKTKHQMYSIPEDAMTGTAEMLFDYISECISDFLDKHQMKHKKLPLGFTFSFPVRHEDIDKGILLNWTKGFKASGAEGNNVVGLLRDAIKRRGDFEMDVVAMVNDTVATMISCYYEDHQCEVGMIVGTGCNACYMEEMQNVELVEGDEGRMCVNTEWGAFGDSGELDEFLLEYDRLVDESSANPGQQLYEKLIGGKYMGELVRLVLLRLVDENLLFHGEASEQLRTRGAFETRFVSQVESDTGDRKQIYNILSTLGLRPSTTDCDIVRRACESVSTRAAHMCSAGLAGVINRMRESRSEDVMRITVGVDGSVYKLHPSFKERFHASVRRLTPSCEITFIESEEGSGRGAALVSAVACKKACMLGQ
Experiment: enzymatic glucokinase activity assay (ATP consumption, KinaseGlo luminescence)
Conditions: recombinant GK residues 12-465; 5 μM ATP, 5 mM Glucose; Kact = concentration that displays 50% of the maximal increase in GK activity; read-out: pKact
pEC50: −log10 of the molar value.
Quantity name: pEC50

{"columns": ["Compound", "Value"],
 "data": [
  ["Cc1cc(S(=O)(=O)C2CCCC2)cc(=O)n1[C@@H](CC1CCOCC1)C(=O)Nc1ccc(F)cn1 [Example 165]", "4.80 to 5.80"],
  ["Cc1cc(S(=O)(=O)C2CCCC2)cc(=O)n1[C@H](CC1CCOCC1)C(=O)Nc1ncc(Cl)s1 [Example 37]", "4.80 to 5.80"],
  ["CS(=O)(=O)c1ccn(C(Cc2ccsc2)C(=O)Nc2ncc(Cl)s2)c(=O)c1 (stereo not shown) [Example 15]", "< 4.80"],
  ["Cc1cc(-c2cccc(C#N)c2)cc(=O)n1[C@@H](CC1CCCCC1)C(=O)Nc1nccs1 [Example 97]", "< 4.80"],
  ["Cc1cc(S(=O)(=O)C2CCCC2)cc(=O)n1[C@@H](CC1CCOCC1)C(=O)Nc1ncc(Cl)s1 [Example 38]", "> 5.80"],
  ["Cc1cc(S(=O)(=O)C2CC2)cc(=O)n1[C@@H](CC1CCCC1)C(=O)Nc1ncc(Cl)s1 [Example 183]", "> 5.80"],
  ["COc1ccc2nc(NC(=O)C(CC3CCCCC3)n3ccc(S(=O)(=O)C4CC4)cc3=O)sc2n1 (stereo not shown) [Example 68]", "> 5.80"],
  ["Cc1cc(-c2cccc(F)c2)cc(=O)n1[C@@H](CC1CCCCC1)C(=O)Nc1nccs1 [Example 109]", "< 4.80"],
  ["Cc1cc(S(=O)(=O)c2cc(Cl)sc2Cl)cc(=O)n1C(CC1CCOCC1)C(=O)Nc1ncc(Cl)s1 (stereo not shown) [Example 119]", "4.80 to 5.80"],
  ["O=C(Nc1ncc(F)s1)[C@@H](CC1CCOCC1)n1ccc(S(=O)(=O)C2CCCC2)cc1=O [Example 33]", "4.80 to 5.80"],
  ["Cc1ccc(S(=O)(=O)c2cc(C)n(C(CC(C)(C)C)C(=O)Nc3ncc(F)s3)c(=O)c2)cc1 (stereo not shown) [Example 43]", "4.80 to 5.80"],
  ["Cc1cc(-c2ccoc2)cc(=O)n1[C@@H](CC1CCCCC1)C(=O)Nc1nccs1 [Example 99]", "< 4.80"],
  ["Cc1cc(S(=O)(=O)C2CCS(=O)(=O)CC2)cc(=O)n1[C@H](CC1CCCCC1)C(=O)Nc1ncc(Cl)s1 [Example 188]", "< 4.80"],
  ["Cc1cc(S(=O)(=O)C2CCOCC2)cc(=O)n1[C@@H](CC1CCCC1)C(=O)Nc1ncc(F)s1 [Example 193]", "4.80 to 5.80"],
  ["CC(=O)Nc1ccc(=O)n(C(CC2CCOCC2)C(=O)Nc2ncc(Cl)s2)c1 (stereo not shown) [Example 156]", "< 4.80"],
  ["Cc1cc(S(=O)(=O)C2CC2)cc(=O)n1[C@H](CC1CCOCC1)C(=O)Nc1ncc(Cl)s1 [Example 173]", "< 4.80"]
]}
